As shown below, each of these compounds has a reported FGFR1/FGFR3 value.
biological target: FGFR3 enzyme (Homo sapiens (Human)); assay: FGFR Enzymatic Assay (peptide phosphorylation, FRET), FGFR3; format: biochemical; settings: IC50 ratio showing FGFR3 selectivity; pre-incubated for 4 hours
Sequence (P22607 23-806): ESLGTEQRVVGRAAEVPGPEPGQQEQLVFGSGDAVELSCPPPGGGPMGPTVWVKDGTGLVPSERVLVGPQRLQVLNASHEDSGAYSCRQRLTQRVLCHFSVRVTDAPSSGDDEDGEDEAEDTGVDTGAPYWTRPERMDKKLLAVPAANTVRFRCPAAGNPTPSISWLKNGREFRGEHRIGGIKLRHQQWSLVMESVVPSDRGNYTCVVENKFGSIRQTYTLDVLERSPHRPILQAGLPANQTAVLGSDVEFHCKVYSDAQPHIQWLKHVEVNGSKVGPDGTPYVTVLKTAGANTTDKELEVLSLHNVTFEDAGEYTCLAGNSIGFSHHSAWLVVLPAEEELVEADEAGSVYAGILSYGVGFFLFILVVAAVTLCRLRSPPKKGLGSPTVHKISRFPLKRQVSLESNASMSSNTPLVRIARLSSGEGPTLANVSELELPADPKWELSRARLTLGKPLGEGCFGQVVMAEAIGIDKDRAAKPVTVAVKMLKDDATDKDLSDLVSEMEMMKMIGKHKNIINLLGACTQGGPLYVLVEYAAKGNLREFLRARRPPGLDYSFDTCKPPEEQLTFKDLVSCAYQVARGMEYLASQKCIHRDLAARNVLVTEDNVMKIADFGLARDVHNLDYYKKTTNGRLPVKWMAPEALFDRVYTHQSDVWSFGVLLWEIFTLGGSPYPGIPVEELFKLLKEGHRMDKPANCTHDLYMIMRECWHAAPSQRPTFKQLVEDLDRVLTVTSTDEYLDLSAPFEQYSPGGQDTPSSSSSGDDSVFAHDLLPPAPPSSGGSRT
recorded.endpoint: FGFR1/FGFR3

{"columns": ["compound", "readout.value"],
 "data": [
  ["COc1cc(OC)c(F)c(N2Cc3cnc(-c4cncc(C#N)c4)cc3C3(CC3)C2=O)c1F", ">5"],
  ["CCc1nnc(CN2C(=O)N(c3c(F)c(OC)cc(OC)c3F)Cc3cnc(-c4cn(C)nc4C)cc32)o1", ">5"],
  ["COc1cc(OC)c(F)c(N2Cc3cnc(-c4cnn(C5(C#N)CCC5)c4C)cc3C3(CC3)C2=O)c1F", ">5"],
  ["CCN1C(=O)N(c2c(F)c(OC)cc(OC)c2F)Cc2cnc(-c3cn(CCN4CCOCC4)nc3C)cc21", ">5"],
  ["COc1cc(OC)c(F)c(N2Cc3cnc(-c4cncc(S(=O)(=O)N5CCOCC5)c4)cc3C3(CC3)C2=O)c1F", ">5"],
  ["COc1cc(OC)c(F)c(N2Cc3cnc(-c4cn(CCC5CCNCC5)nc4C)cc3C3(CC3)C2=O)c1F", ">3"],
  ["CCCN1C(=O)N(c2c(F)c(OC)cc(OC)c2F)Cc2cnc(-c3cn(C)nc3C)cc21", ">1"],
  ["COc1cc(OC)c(F)c(N2Cc3cnc(-c4cn(C)nc4C)cc3N(c3ccc4ncsc4c3)C2=O)c1F", ">1"],
  ["CCN1C(=O)N(c2c(F)c(OC)cc(OC)c2F)Cc2cnc(-c3cnn(C)c3)cc21", ">3"],
  ["COc1cc(OC)c(F)c(N2Cc3cnc(-c4cn(C)nc4C)cc3N(Cc3cc(C(C)C)on3)C2=O)c1F", ">5"],
  ["CNC(=O)c1ccc(-c2cc3c(cn2)CN(c2c(F)c(OC)cc(OC)c2F)C(=O)C32CC2)cn1", ">5"],
  ["CCc1cc(CN2C(=O)N(c3c(F)c(OC)cc(OC)c3F)Cc3cnc(-c4cn(C)nc4C)cc32)no1", ">10"],
  ["COc1cc(OC)c(F)c(N2Cc3cnc(-c4cn(C)nc4C)cc3N(Cc3cnn(C)c3)C2=O)c1F", ">5"],
  ["COc1cc(OC)c(F)c(N2Cc3cnc(-c4cnn(CCN5CCOCC5)c4)cc3C3(CC3)C2=O)c1F", ">5"],
  ["COc1cc(OC)c(F)c(N2Cc3cnc(-c4cn(CCN5CCOCC5)nc4C)cc3C3(CC3)C2=O)c1F", ">10"],
  ["COc1cc(OC)c(F)c(N2Cc3cnc(-c4cn(C)nc4C)cc3N(C3CC3)C2=O)c1F", ">5"],
  ["COc1cc(OC)c(F)c(N2Cc3cnc(-c4cn(C)nc4C)cc3N(Cc3cnn(C)c3C)C2=O)c1F", ">10"],
  ["COc1cc(OC)c(F)c(N2Cc3cnc(-c4cn(C)nc4C)cc3N(c3cnc(C)cn3)C2=O)c1F", ">3"],
  ["COc1cc(OC)c(F)c(N2Cc3cnc(-c4cn(C)nc4C)cc3N(CC3CC3)C2=O)c1F", ">1"],
  ["CCN1C(=O)N(c2c(F)c(OC)cc(OC)c2F)Cc2cnc(-c3cccnc3)cc21", ">5"],
  ["COc1cc(OC)c(F)c(N2Cc3cnc(-c4ccc(C#N)nc4)cc3C3(CC3)C2=O)c1F", ">5"],
  ["COc1cc(OC)c(F)c(N2Cc3cnc(-c4cncc(C(=O)N5CCOCC5)c4)cc3C3(CC3)C2=O)c1F", ">3"],
  ["COc1cc(OC)c(F)c(N2Cc3cnc(-c4cn(C)nc4C)cc3N(C3CCN(C(C)=O)CC3)C2=O)c1F", ">10"],
  ["COc1cc(OC)c(F)c(N2Cc3cnc(-c4cn(C)nc4C)cc3N(c3ccc(-n4cccn4)cc3)C2=O)c1F", ">5"],
  ["COc1cc(OC)c(F)c(N2Cc3cnc(-c4cnn(CCN5CCC(OC)C5)c4)cc3C3(CC3)C2=O)c1F (stereo not drawn)", ">5"],
  ["COc1cc(OC)c(F)c(N2Cc3cnc(-c4cncc(N)c4)cc3C3(CC3)C2=O)c1F", ">1"],
  ["COc1cc(OC)c(F)c(N2Cc3cnc(-c4cncc(NS(C)(=O)=O)c4)cc3C3(CC3)C2=O)c1F", ">3"],
  ["COc1cc(OC)c(F)c(N2Cc3cnc(-c4cnn(CCC5CCN(S(C)(=O)=O)CC5)c4)cc3C3(CC3)C2=O)c1F", ">10"],
  ["COc1cc(OC)c(F)c(N2Cc3cnc(-c4cn(C)nc4C)cc3N(c3ccc(S(C)(=O)=O)cc3)C2=O)c1F", ">5"],
  ["CCN1C(=O)N(c2c(F)c(OC)cc(OC)c2F)Cc2cnc(-c3cn(CC(=O)N4CCOCC4)nc3C)cc21", ">1"]
]}
